molecular target: ACE-2 (Homo sapiens); construct: a stop codon inserted after the serine immediately preceding the transmembrane domain; made in house; host or cells: CHO K1 cells (transient transfection, purified from conditioned medium); assay: ACE-2 Competitive Substrate Assay (ACS Assay); format: biochemical; conditions: Ki class; compounds tested in 5% DMSO, 12 concentrations; read-out: Human ACE-2 Activity
READOUT KIND: Ki

Example cases with answers are listed next.
> print(dat)
                                   compound  measured.value
1  CC(C)CC(N[C@@H](Cc1c[nH]cn1)C(=O)O)C(=O)O (single isomer, unassigned) [BK]        > 500 nM
2  COc1ccc(Cn2cnc(C[C@H](NC(CC(C)C)C(=O)O)C(=O)O)c2)cc1 (stereo partly drawn)        > 500 nM
3  CCC(C)C(NC(Cc1cncn1Cc1ccccc1)C(=O)O)C(=O)O (single isomer, unassigned)        > 500 nM

Next:
q: Find the recorded Ki belonging to COc1ccc(C(N[C@@H](CC(C)C)C(=O)O)C(=O)O)cc1 (stereo partly drawn) and report it.
a: > 500 nM

---

molecular target: ACE-2 (Homo sapiens, UniProt Q9BYF1); construct: a stop codon inserted after the serine immediately preceding the transmembrane domain; made in house; host or cells: CHO K1 cells (transient transfection, purified from conditioned medium); assay: ACE-2 Competitive Substrate Assay (ACS Assay); format: biochemical; details: Ki class; compounds tested in 5% DMSO, 12 compound concentrations, Ki=Kiapp/(1+[S]/Km); read-out: Human ACE-2 Activity
Sequence (Q9BYF1 18-740 limits assumed): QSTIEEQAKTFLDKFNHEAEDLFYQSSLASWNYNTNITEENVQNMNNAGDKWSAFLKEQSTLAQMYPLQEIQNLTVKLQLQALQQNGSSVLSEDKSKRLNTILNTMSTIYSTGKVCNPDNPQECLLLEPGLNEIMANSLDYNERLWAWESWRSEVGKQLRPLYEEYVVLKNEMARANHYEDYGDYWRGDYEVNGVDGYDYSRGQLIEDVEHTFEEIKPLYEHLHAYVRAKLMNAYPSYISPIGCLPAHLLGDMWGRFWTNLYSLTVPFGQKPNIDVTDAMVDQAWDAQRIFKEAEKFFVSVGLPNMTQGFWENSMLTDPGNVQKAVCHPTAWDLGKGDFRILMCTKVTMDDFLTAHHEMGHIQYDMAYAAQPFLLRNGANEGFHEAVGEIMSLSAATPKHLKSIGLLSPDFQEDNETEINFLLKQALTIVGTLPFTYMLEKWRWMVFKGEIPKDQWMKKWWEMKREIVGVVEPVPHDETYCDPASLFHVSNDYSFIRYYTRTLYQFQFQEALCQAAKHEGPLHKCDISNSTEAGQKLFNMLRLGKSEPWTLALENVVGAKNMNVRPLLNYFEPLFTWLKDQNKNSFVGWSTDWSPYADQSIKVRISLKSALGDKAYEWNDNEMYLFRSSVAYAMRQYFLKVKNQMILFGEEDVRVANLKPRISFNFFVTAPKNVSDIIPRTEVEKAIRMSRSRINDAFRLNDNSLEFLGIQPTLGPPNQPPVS
READOUT KIND: Ki

Below are worked cases with known answers.
> print(dat)
                                   molecule  measured.value
1  CC(C)C[C@H](N[C@@H](Cc1cccc(-c2ccsc2)c1)C(=O)O)C(=O)O        > 500 nM
2  Cc1ccc(Cn2cncc2C[C@H](NC(CC(C)C)C(=O)O)C(=O)O)cc1 (single isomer, unassigned) [HH]   100 to 500 nM
3  CC(C)C[C@H](N[C@@H](Cn1ccn(Cc2ccc(F)cc2)c1=O)C(=O)O)C(=O)O   100 to 500 nM
4  Cc1ccccc1Cn1cncc1C[C@H](NC(CC(C)C)C(=O)O)C(=O)O (single isomer, unassigned) [HW]   100 to 500 nM
5  CC(C)C[C@H](N[C@@H](Cc1csc(-c2ccc(F)c(Cl)c2)n1)C(=O)O)C(=O)O        < 100 nM

q: Give the measured Ki of CC(C)C[C@H](N[C@@H](Cn1ccn(Cc2cc(F)cc(F)c2)c1=O)C(=O)O)C(=O)O .
a: < 100 nM

q: Could you tell me which Ki is on file for CC(C)CC(NC(CC(=O)N1CCN(C(c2ccccc2)c2ccc(Cl)cc2)CC1)C(=O)O)C(=O)O (stereo not shown) ?
a: > 500 nM

q: Any idea what Ki was measured for CCC(CC)Cn1cncc1C[C@H](NC(CC(C)C)C(=O)O)C(=O)O (single isomer, unassigned) [JN] ?
a: > 500 nM

q: Consider the molecule shown here: COC(=O)[C@H](Cc1cncn1Cc1cc(Cl)cc(Cl)c1)N[C@@H](CC(C)C)C(=O)O What is its recorded Ki?
a: < 100 nM

q: Record request: Ki value, item CC(C)CC(N[C@@H](Cc1cncn1Cc1ccc(OC(F)(F)F)cc1)C(=O)O)C(=O)O (single isomer, unassigned) [HT]
a: > 500 nM

q: Value lookup for Ki; key = CCCCc1ccc(Cn2cncc2C[C@H](NC(CC(C)C)C(=O)O)C(=O)O)cc1 (single isomer, unassigned) [HJ]
a: > 500 nM

q: Item under review: CC(C)C[C@H](N[C@@H](Cc1ccc(OCCc2ccccc2)cc1)C(=O)O)C(=O)O . Reported Ki?
a: 100 to 500 nM

q: Return reported Ki; argument: CC(C)C[C@H](N[C@@H](CCc1ccc(OCc2ccccc2)cc1)C(=O)O)C(=O)O
a: 100 to 500 nM

q: Can you share its Ki? I mean this molecule: CC(C)CC(N[C@@H](Cc1cncn1Cc1ccc(C(C)C)cc1)C(=O)O)C(=O)O (single isomer, unassigned) [HU]
a: < 100 nM

q: Give its Ki value. Item: CC(C)C[C@H](N[C@@H](Cc1ccc(Cc2ccccc2)cc1)C(=O)O)C(=O)O
a: < 100 nM

q: Consider the molecule shown here: CC(C)C[C@H](N[C@@H](CCNC(=O)c1ccc2ccccc2c1)C(=O)O)C(=O)O What is its recorded Ki?
a: > 500 nM
